- test-name: chemical genetic growth profiling, strain panel (AID 1159580);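 note: tested at 20 µM; growth read once vehicle control cultures reached saturation at 30 °C; 1 = growth at the plate median or of vehicle wells; lower values mean less growth of the strain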
- condition-description: S. cerevisiae deletion strains, growth OD, locus YHR030C, strain SLT2
Among all 5,500 compounds or so, about 2,000 (36%) were called active. Another 18% or so got no clear call; they are omitted. Cut-off read from the data, not from the text of the source: active = normalized growth mostly below about 0.91 (no sharp cut-off); inconclusive = no clear call, values can overlap the other calls; inactive = mostly above about 0.92. Some of the results follow.
Labels: active, inactive

O=C1C=CC(=O)c2ccccc21
active
CC(=O)c1ccc(Sc2ccccc2)c([N+](=O)[O-])c1
active
FC(F)(F)c1ccncc1-c1nc(-c2ccc(Cl)cc2)cs1
active
COc1ccc(-c2c(OC)c3c(OC)c4c(cc3oc2=O)OC(C)(C)C=C4)cc1
inactive
CNC(=O)N(C)c1nnc(C(C)(C)C)s1
inactive
COC1=C(OC)C(=O)C(CCCCCCCCCCO)=C(C)C1=O
inactive
O=[N+]([O-])c1ccc(Sc2ccccc2)c([N+](=O)[O-])c1
active
Cc1cc(S(=O)(=O)NCCNc2nccc(C(F)(F)F)n2)c(C)cc1Cl
inactive
CC(=O)c1ccc(Sc2ccccn2)c([N+](=O)[O-])c1
inactive
O=C1c2ccccc2C(=O)c2sccc21
active
O=C1CSC(c2cccnc2)N1c1ccc(C2CCCCC2)cc1 (centres undefined)
inactive
CCOC(=O)c1c[nH]c2c(F)cccc2c1=O
inactive
CCOC(=O)CC(=O)CSc1nnc(N)s1
inactive
FC(F)(F)c1c2c(nc3cc(-c4ccco4)nn13)CCC2
active
O[C@@H]1[C@H](O)CO[C@H]1O
inactive
C[C@H]1C(=O)CCC2[C@]3(C)CC[C@@]4(C)C5CC(C)(C)CC[C@]5(C)CC[C@]4(C)C3CC[C@@]21C (some centres undefined)
inactive
CN(C)CCC[C@@]1(c2ccc(F)cc2)OCc2cc(C#N)ccc21
inactive
COC(=O)c1cc(I)c(OC(C)=O)c(I)c1
inactive
CCCCCCCCCCCCCCCC(=O)OC[C@H](NC(=O)C(Cl)Cl)[C@H](O)c1ccc([N+](=O)[O-])cc1
inactive
O=C1CSC(c2cccnc2)N1c1ccc(Cl)cc1 (centres undefined)
inactive
CCOC(=O)c1ccc(Oc2ncc(C(F)(F)F)cc2Cl)cc1
inactive
Cn1nccc1NS(=O)(=O)c1ccc(C(C)(C)C)cc1
inactive
CC(C)(C)c1cc(C(=O)NN)n[nH]1
inactive
O=C(Nc1cc(-c2ccccc2)[nH]n1)c1ccccc1
active

* * *

- test-name: chemical genetic growth profiling, strain panel (AID 1159580);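 note: tested at 20 µM; growth read once vehicle control cultures reached saturation at 30 °C; 1 = growth at the plate median or of vehicle wells; lower values mean less growth of the strain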
- condition-description: S. cerevisiae deletion strains, growth OD, locus YOR106W, strain vam3
In all, about 5,500 compounds went through this assay and about 2,000 (36%) were called active. Roughly 18% stayed inconclusive and do not appear here. Cut-off read from the data, not from the text of the source: active = normalized growth mostly below about 0.91 (no sharp cut-off); inconclusive = no clear call, values can overlap the other calls; inactive = mostly above about 0.92. The list shows a part of the results.
Classes used: 1 (active), -1 (inactive)

O=C1C=C(O)c2ccccc2C1=O
1
NC(=NCCCCCCN=C(N)N=C(N)Nc1ccc(Cl)cc1)N=C(N)Nc1ccc(Cl)cc1
1
CON
-1
CNC(C)(C)Cc1ccccc1
-1
CC1=C(C(=O)O)N2C(=O)[C@@H](NC(=O)[C@@H](N)c3ccc(O)cc3)[C@H]2SC1
-1
O=c1c(O)c(-c2ccccc2)oc2cccc(O)c12
1

* * *

- test-name: chemical genetic growth profiling, strain panel (AID 1159580);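 note: tested at 20 µM; growth read once vehicle control cultures reached saturation at 30 °C; 1 = growth at the plate median or of vehicle wells; lower values mean less growth of the strain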
- condition-description: S. cerevisiae deletion strains, growth OD, locus YLR085C, strain ARP6, hits give low values
Hit rate of the full screen: of about 5,500 compounds, about 2,000 (36%) were called active. Inconclusive results (about 18%) are left out. Some of the results follow.
Mark true only for normalized growth values smaller than 1; exact matches and larger values are false.

CCCCC#Cc1ccc(C(=O)NNC(=O)Nc2cc(Cl)cc(Cl)c2)o1
false
Nc1ccccc1C(=O)NCCc1ccc(Cl)cc1
true
NC(=O)C1=C(O)C(=O)N(C2CCCCC2)C1
false
O=C1c2ccccc2C(=O)N1CNc1cccc(Cl)c1
true
CC(C)(C)S(=O)(=O)c1cnc(N)nc1N
false
